Where these numbers come from: ChEMBL document CHEMBL4513216

List of cytotoxicity at 10 µM values.
# protocol_summary: Toxicity liver stage against HepG2, at 10uM
# Type: cell-based
# Design: test concentration 10 uM, cell line HepG2-A16-CD81EGFP
# experimental_parameters: human, HepG2-A16-CD81EGFP cells; read-out: INHIBITION
property: cytotoxicity at 10 µM (%)

compound="Cc1ccccc1CN1CCC(NCC2CNc3ccnn3C2)CC1 (centres undefined)" property="cytotoxicity at 10 µM" unit_annotation=% observed_value=0.0194
compound=Cc1c(C(=O)NC2=NCCS2)cnn1-c1ccc(Cl)cc1 property="cytotoxicity at 10 µM" unit_annotation=% observed_value=1.51
compound="Cc1[nH]ccc1C(=O)N1CCCC(c2ccc(C(=O)O)cc2)C1 (centres undefined)" property="cytotoxicity at 10 µM" unit_annotation=% observed_value=-0.591
compound=C[C@@H]1CN(CCOCc2ccccc2)CC[C@@]1(O)C1CCC1 property="cytotoxicity at 10 µM" unit_annotation=% observed_value=1.4
compound="O=C(Cc1cccs1)N1CCOCC1CO (centres undefined)" property="cytotoxicity at 10 µM" unit_annotation=% observed_value=-4.63
compound=COc1ccc(N2CCN(C(=O)c3nc(Cl)sc3C(C)C)CC2)cc1 property="cytotoxicity at 10 µM" unit_annotation=% observed_value=3.17
compound=CCc1cnc(N2CC[C@@H]3CN(C(=O)c4ccco4)CCO[C@@H]3C2)nc1 property="cytotoxicity at 10 µM" unit_annotation=% observed_value=9.22
compound="Cc1cnc(NC(=O)c2ccc(C3CCCN3CC(C)C)s2)s1 (centres undefined)" property="cytotoxicity at 10 µM" unit_annotation=% observed_value=9.45
compound="CC(C)c1nc(CN2CCCC2Cn2cncn2)no1 (centres undefined)" property="cytotoxicity at 10 µM" unit_annotation=% observed_value=-7.3
compound=COc1nc2c(cc1C(=O)N1CC[C@H](CO)[C@@H](O)C1)CCC2 property="cytotoxicity at 10 µM" unit_annotation=% observed_value=-42.4
compound="COc1ccccc1OCc1cc(C(=O)N2CCCCCC2CO)n[nH]1 (centres undefined)" property="cytotoxicity at 10 µM" unit_annotation=% observed_value=-2.48
compound=CC(C)c1ccc(OCn2ccc(C(=O)N3CCCC3)n2)cc1 property="cytotoxicity at 10 µM" unit_annotation=% observed_value=12.7
compound=O=C(C1CC1)N1CCC2(CCCN2Cc2ccc(F)cc2)CC1 property="cytotoxicity at 10 µM" unit_annotation=% observed_value=3.35
compound="NC(=O)c1csc(C(=O)N2CCCC(n3cccn3)C2)c1 (centres undefined)" property="cytotoxicity at 10 µM" unit_annotation=% observed_value=-2.77
compound=Cn1cncc1-c1nnc([C@H]2CCN(Cc3ccc(CO)o3)C2)o1 property="cytotoxicity at 10 µM" unit_annotation=% observed_value=-4.09
compound=CCCS(=O)(=O)N1CCC(Oc2ccc(C#N)cc2)CC1 property="cytotoxicity at 10 µM" unit_annotation=% observed_value=3.82
compound=O=C(O)[C@@H]1CN(C(=O)CCc2ccccn2)C[C@H]1c1ccccc1 property="cytotoxicity at 10 µM" unit_annotation=% observed_value=7.96
compound=O=C(NCc1ccon1)N1CCC(n2ccc(C(F)(F)F)n2)CC1 property="cytotoxicity at 10 µM" unit_annotation=% observed_value=-0.0817
compound=CCN1C[C@@H]2CN(C(=O)c3cccn3C)C[C@@H]2C1=O property="cytotoxicity at 10 µM" unit_annotation=% observed_value=-96.1
compound=CCc1cc(NC2CCS(=O)(=O)CC2)nc(N2CCCCC2)n1 property="cytotoxicity at 10 µM" unit_annotation=% observed_value=-15.8
compound=COCCc1nnc(NC(=O)Cc2ccccc2Cl)o1 property="cytotoxicity at 10 µM" unit_annotation=% observed_value=-6.95
compound=Cc1cc(CNC(=O)[C@H]2CCCCN2C(=O)OC(C)(C)C)on1 property="cytotoxicity at 10 µM" unit_annotation=% observed_value=-0.82
compound="CCN1C(=O)CCCC12CCCN(C(=O)c1occc1C)C2 (centres undefined)" property="cytotoxicity at 10 µM" unit_annotation=% observed_value=2.88
compound="COc1ccccc1CC(=O)N1CCCC1Cn1nc(C)cc1C (centres undefined)" property="cytotoxicity at 10 µM" unit_annotation=% observed_value=-9.37

###

# protocol_summary: Toxicity liver stage against HepG2, at 10uM
# Format: cell-based
# Design: test concentration 10 uM, cell line HepG2-A16-CD81EGFP
# experimental_parameters: human, HepG2-A16-CD81EGFP cells; read-out: INHIBITION
Entries and their cytotoxicity at 10 µM
property: cytotoxicity at 10 µM (%)

compound=CS(=O)(=O)NC[C@]12COC[C@H]1CN(CC1CCC1)C2 property="cytotoxicity at 10 µM" unit_annotation=% observed_value=-110
compound="Cc1cc(C(=O)N2CCCC(n3cncn3)C2)c(C)n1C1CC1 (configuration not stated)" property="cytotoxicity at 10 µM" unit_annotation=% observed_value=-3.32
compound=Cc1ncnc2c1CCN(C(=O)c1cnccn1)CC2 property="cytotoxicity at 10 µM" unit_annotation=% observed_value=-5.19
compound=CN(C)[C@H]1CCCCN(C(=O)COCc2nc3cc(F)ccc3[nH]2)C1 property="cytotoxicity at 10 µM" unit_annotation=% observed_value=0.185
compound=Cn1ccnc1CN1CC[C@H]2CO[C@H](CNc3ncccn3)[C@H]2C1 property="cytotoxicity at 10 µM" unit_annotation=% observed_value=-5.81
compound=O=C(CN1CCOCC1)Nc1cc(C(F)(F)F)ccc1-n1cccc1 property="cytotoxicity at 10 µM" unit_annotation=% observed_value=8.32
compound="O=C(C1CCCS1)N1CCOc2cccc(F)c21 (configuration not stated)" property="cytotoxicity at 10 µM" unit_annotation=% observed_value=-6.54
compound=CCc1cccc(N2CCC(NC(=O)c3ccncc3)CC2)c1 property="cytotoxicity at 10 µM" unit_annotation=% observed_value=-13.9
compound=COCCN1CCO[C@@H]2CN(Cc3ccccc3OC)C[C@@H]2C1 property="cytotoxicity at 10 µM" unit_annotation=% observed_value=-2.48
compound=O=C(CN1C=Nc2ccccc2S1(=O)=O)NCc1ccccc1 property="cytotoxicity at 10 µM" unit_annotation=% observed_value=-3.95
compound="Cc1cc(C)n(CCCNC(=O)C2CCCO2)n1 (configuration not stated)" property="cytotoxicity at 10 µM" unit_annotation=% observed_value=-11.5
compound="O=C(CN1CCCCC1Cn1cncn1)NCc1ccccn1 (configuration not stated)" property="cytotoxicity at 10 µM" unit_annotation=% observed_value=-4.02

###

# protocol_summary: Toxicity liver stage against HepG2, at 10uM
# Type: cell-based
# Parameters: test concentration 10 uM, cell line HepG2-A16-CD81EGFP
# experimental_parameters: human, HepG2-A16-CD81EGFP cells; read-out: INHIBITION
property: cytotoxicity at 10 µM (%)

compound=CC(C)Nc1nc2c(s1)C(=O)CN(C)C2 property="cytotoxicity at 10 µM" observed_value=-9.77
compound=Cc1csc(CN2CCC[C@]3(C[C@@H](OCC4CC4)CO3)C2)n1 property="cytotoxicity at 10 µM" observed_value=-134
compound=CC(C)c1cc(C2CCN(C(=O)Cn3cncn3)CC2)[nH]n1 property="cytotoxicity at 10 µM" observed_value=3.65
compound="CN(Cc1noc(C2CC2)n1)C1CCN(CCc2cccs2)C1 (stereo not drawn)" property="cytotoxicity at 10 µM" observed_value=-5.98
compound="CC(O)CN1CC2(CCC1=O)CCN(Cc1cc(F)ccc1Cl)CC2 (stereo not drawn)" property="cytotoxicity at 10 µM" observed_value=6.89
compound="CC(C)(C)c1n[nH]c(C2CN(C(=O)c3ccsc3)CCO2)n1 (stereo not drawn)" property="cytotoxicity at 10 µM" observed_value=-12.3
compound="COc1ncccc1C(=O)NC1CCOc2ccccc21 (stereo not drawn)" property="cytotoxicity at 10 µM" observed_value=-6.25
compound=CCOc1ccccc1C(=O)N1CCn2c(nnc2C(F)(F)F)C1 property="cytotoxicity at 10 µM" observed_value=-2.99
compound=CCN(CC)Cc1cn2c(n1)CN(C(=O)Cc1ccsc1)CC2 property="cytotoxicity at 10 µM" observed_value=-143
compound="Cc1cc(F)ccc1NC(=O)NCC(C)N1CCOCC1 (stereo not drawn)" property="cytotoxicity at 10 µM" observed_value=-4.1
compound=CSc1ccc(CN(CCO)Cc2nccn2C)cc1 property="cytotoxicity at 10 µM" observed_value=4.98
compound=c1coc(CN2CCC(c3ccc4c(c3)OCO4)CC2)c1 property="cytotoxicity at 10 µM" observed_value=-1.55
compound="Cc1ccccc1N1CC(C)N(C(=O)CCn2cccn2)CC1=O (stereo not drawn)" property="cytotoxicity at 10 µM" observed_value=10.1
compound=CCCN1CCCn2c(nc(CNC(=O)c3cnoc3C)cc2=O)C1 property="cytotoxicity at 10 µM" observed_value=2.32
compound=CCN(C)c1ncnc2c1CCN(C(=O)N(C)C)CC2 property="cytotoxicity at 10 µM" observed_value=-0.0197
compound="Clc1ccc2cccnc2c1CN1CCCCC1Cn1cncn1 (stereo not drawn)" property="cytotoxicity at 10 µM" observed_value=7.63
compound=C[C@]1(O)CN(Cc2ncccc2F)CC[C@@H]1Oc1cccc(F)c1 property="cytotoxicity at 10 µM" observed_value=-2.11
compound=CCOc1cc(C)nc(N2CCN(C(=O)CC)CC2)n1 property="cytotoxicity at 10 µM" observed_value=-6.68
compound="COC(C)c1cccc(NC(=O)N(CCC#N)Cc2ccccn2)c1 (stereo not drawn)" property="cytotoxicity at 10 µM" observed_value=13.1
compound="COc1cccc(C(=O)N2CCCCC2CNC(N)=O)c1 (stereo not drawn)" property="cytotoxicity at 10 µM" observed_value=-7.03
compound="CN(C)C1COC2(CCN(S(=O)(=O)c3ccc(F)cc3)CC2)C1 (stereo not drawn)" property="cytotoxicity at 10 µM" observed_value=-129
compound="Cc1ncoc1C(=O)N1CCCC(C(=O)c2cccc(OC(C)C)c2)C1 (stereo not drawn)" property="cytotoxicity at 10 µM" observed_value=8.84
compound=O=C(NC1CC1)[C@H]1C[C@@H]2CCN(CCc3ccccc3)C[C@H]2O1 property="cytotoxicity at 10 µM" observed_value=6.46
compound="Cc1cc(C2CCCN2C(=O)c2cc3c(s2)CCC3)on1 (stereo not drawn)" property="cytotoxicity at 10 µM" observed_value=-13.4
compound="COc1cc(Br)c(CNC2CCCNC2=O)cc1OC (stereo not drawn)" property="cytotoxicity at 10 µM" observed_value=1.93
compound=c1ccc(CN2C[C@@H]3CCCO[C@@H]3[C@H](Nc3ccccn3)C2)nc1 property="cytotoxicity at 10 µM" observed_value=-7.39
compound="COCCNC(=O)C1CN(Cc2nccs2)Cc2ccnn2C1 (stereo not drawn)" property="cytotoxicity at 10 µM" observed_value=-72.7
compound="CC(C)Oc1ccc(C(=O)Cn2cnnc2[S+](C)[O-])cc1 (stereo not drawn)" property="cytotoxicity at 10 µM" observed_value=-4.68
compound=CCOc1ccc(C(=O)N2C[C@@H]3CC[C@H]2CN(C)C3)cc1OCC property="cytotoxicity at 10 µM" observed_value=-15.7
compound=CC(C)CCN(CCC(C)C)Cc1nc2c(cnn2C)c(=O)[nH]1 property="cytotoxicity at 10 µM" observed_value=-5.57
compound=CCN(CCO)C[C@@H]1CN(c2nc(C)cc(C)n2)C[C@@H]1CO property="cytotoxicity at 10 µM" observed_value=-5.34
compound=CCc1noc(C)c1C(=O)Nc1cnn(CC(=O)NC2CCCC2)c1 property="cytotoxicity at 10 µM" observed_value=-3.08
compound=COCCC(=O)N1C[C@@H](c2ccc(F)c(F)c2)[C@@]2(CCCC(=O)N2)C1 property="cytotoxicity at 10 µM" observed_value=-9.06
compound=Cc1nc(C)n(CCC(=O)N2CCc3ncc(Cl)cc3C2)n1 property="cytotoxicity at 10 µM" observed_value=2.67
compound="Fc1ccc(NC2CCCN(Cc3ccncc3)C2)cc1 (stereo not drawn)" property="cytotoxicity at 10 µM" observed_value=3.58
compound="COc1cccc(CN2CCC3(CCN(c4ncc(C)cn4)C3)C2=O)c1 (stereo not drawn)" property="cytotoxicity at 10 µM" observed_value=-0.265
compound="Cc1nc(C)n(CC2CN(Cc3cscn3)CCO2)n1 (stereo not drawn)" property="cytotoxicity at 10 µM" observed_value=-4.22
compound="O=C(c1ncoc1C1CCCO1)N1CCC2(CCCCC2)CC1 (stereo not drawn)" property="cytotoxicity at 10 µM" observed_value=-7
compound=O=C(Nc1ccccc1)[C@H]1C[C@H]2CN(S(=O)(=O)C3CC3)C[C@@H]1O2 property="cytotoxicity at 10 µM" observed_value=4.44
compound=CN(Cc1cccs1)C(=O)c1ccc(N2CCOCC2)c(F)c1 property="cytotoxicity at 10 µM" observed_value=-5.56
compound=CCCNC(=O)c1cccc(CNCc2csc(CC)n2)c1 property="cytotoxicity at 10 µM" observed_value=-10.7
compound="COC1(CNC(=O)CCCc2ccccc2)CCSC1 (stereo not drawn)" property="cytotoxicity at 10 µM" observed_value=4.68
compound=Cc1nc(N)nc(C)c1Cc1nc(C2CC2)n[nH]1 property="cytotoxicity at 10 µM" observed_value=-9.44
compound=CN(C)[C@@H]1CCN(C(=O)NC2CCCC2)[C@H]1Cc1cnn(C)c1 property="cytotoxicity at 10 µM" observed_value=-0.336
compound=CCc1cc(N(C)CCc2c(C)n[nH]c2C)ncn1 property="cytotoxicity at 10 µM" observed_value=-4.45
compound=Cc1cc(N2Cc3cnn(CCO)c3C2)nc(-c2ccccc2O)n1 property="cytotoxicity at 10 µM" observed_value=-162
compound=Cc1ccc(OCc2occc2C(=O)O)cc1 property="cytotoxicity at 10 µM" observed_value=-3.76
compound="COc1cc(CNCC(O)c2ccc(F)c(F)c2)cc2c1OCO2 (stereo not drawn)" property="cytotoxicity at 10 µM" observed_value=-8.28
